// data source = the supplement of paper PMC6555819

- Test system: RARb homodimer (NR concentration 270 nM)
- assay.comment: PBM binding z-score (relative to random genomic background probes); higher = stronger binding; sequences stand for … in GC…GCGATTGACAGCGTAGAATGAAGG
quantity: PBM binding z-score
When you answer, write just the number.

CCAACTAGGTCAAGGACAGTGAATCTCCGCACGC
3.18
TCTCGGAGGACACGAACGGTCAGAGCTCGACATC
1.89
CCTCCTGGGCCACGAAAGGTCATTGATTCAGTGA
4.56
CGTCCAAGTTCAAGGTCAGTGAAAGAGACTCGAA
4.11
GCTGCTAGGTCAGGTTGGTCAGCTGACGGGTACG
2.62
AGTCAAAGTTCAGGACGAGGTAACCTAAAGCACG
3.52
TAGCCTAGGTCTTTCAGGGGCCAGTATAGAAAGC
0.423
TCGAGTAGGTTACGAATGGGGCATTCAGCTTTCT
0.29
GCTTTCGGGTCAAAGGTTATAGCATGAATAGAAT
3.37
CATACAGCGTCAGCTAGGCCAGAGTAGGGACGGC
-0.506

Problem: Given "CCGACTGGGGCAAAGGTTACTATACTCAGTACGA" , respond with its PBM binding z-score.
Result: 1.74

Problem: Recall and state the measured PBM binding z-score for "CAAACTAGGTCACGAAAGGTCAAAGACGAATGAC" .
Result: 5.96

Problem: Return the recorded PBM binding z-score value; entry: "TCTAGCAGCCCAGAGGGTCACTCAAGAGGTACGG"
Result: 2.38

Problem: Give the reported PBM binding z-score for this sequence. "AGAATGAGGGCAATGAGTTGATAGCACGGGTGGC"
Result: 1.18

Problem: Retrieve PBM binding z-score measured for "CCTAGCAGGCCAATCTGGGTCACTAAAGGCTTGA" and print it.
Result: 2.01

Problem: Write down PBM binding z-score measured for item "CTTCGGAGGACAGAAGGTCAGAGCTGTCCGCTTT"
Result: 3.32

====

Let's look at some sequences and their measured PBM binding z-score.
- System: PPARg:RXRa DBDmut IVT, anti-RXR (DBD mutation: RXRa K156A/R161A, NR concentration 270 nM, RXRa partner concentration 90 nM)
- assay.comment: PBM binding z-score (relative to random genomic background probes); higher = stronger binding; sequences stand for … in GC…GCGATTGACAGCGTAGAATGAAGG
Reply with the value as a number alone.

Worked cases, answers included:
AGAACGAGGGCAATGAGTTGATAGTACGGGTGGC
3.34
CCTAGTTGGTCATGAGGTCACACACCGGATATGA
2.85
CGAACTAGGTCAGAACAGGACAGTGATGGATGAT
6.82
CCGACTGTGGCATAAGGTTACCATAAGCCAGCCC
1.12
TCATATAGGTAATACAGGGGAAAGTCGGCATCTA
4.42
TCGAGTAGGTTAGTCGGGGCATACAGCCAACATA
2.34

Problem: Retrieve PBM binding z-score measured for "TCGAGTAGGTTAGACGGGGCATTCAGCCAACATA" and print it.
Result: 2.22

Problem: Supply recorded PBM binding z-score for "ATCTCTAGGTAACCTAGTTCAGTGAATGCCGAAC" here.
Result: 4.08

Problem: Please give the documented PBM binding z-score of "GCAGACATGTGAAACGCAGGTAACTCAGGGTGGC"
Result: -0.934
